// values below are reported viability, T/C
System: LG0567-F671-PDC complex spheroids viability;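 also: spheroids exposed to compound for seven days before readout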
Assay: Anticancer human tumor LG0567-F671-PDC patient-derived lung adenocarcinoma cell line growth inhibition [RAS]
Conditions: second compound 0.000949 µM; first compound 3.16 µM; active compounds read low
Report only the number, with the unit % understood.

1) C[C@@H](NC(=O)c1ncnc(N)c1Cl)c1ncc(C(=O)Nc2cc(C(F)(F)F)c(Cl)cn2)s1 + CCn1c(-c2cc(N3CCN(C)CC3)cnc2C(C)OC)c2c3cc(ccc31)-c1csc(n1)CC(NC(=O)C1CC1C)C(=O)N1CCCC(N1)C(=O)OCC(C)(C)C2: 40.3
2) CC(Nc1ccc2c(c1)OCCn1cc(N3C(=O)OCC3C(F)F)nc1-2)C(N)=O (centres undefined) + CCn1c(-c2cc(N3CCN(C)CC3)cnc2C(C)OC)c2c3cc(ccc31)-c1csc(n1)CC(NC(=O)C1CC1C)C(=O)N1CCCC(N1)C(=O)OCC(C)(C)C2: 7.19
3) C[C@@H](NC(=O)c1ncnc(N)c1Cl)c1ncc(C(=O)Nc2cc(C(F)(F)F)c(Cl)cn2)s1 + CCn1c(-c2cccnc2C(C)OC)c2c3cc(ccc31)N1CCOC(CC(NC(=O)C(C(C)C)N(C)C(=O)C3(F)CCN(C(=O)C#CC(C)(C)N(C)C)CC3)C(=O)N3CCCC(N3)C(=O)OCC(C)(C)C2)C1: 23.5
4) Cc1nc(N2CCC3(CC2)COC(C)C3N)c(CO)nc1Sc1ccnc(N)c1Cl (centres undefined) + CCn1c(-c2cc(N3CCN(C)CC3)cnc2C(C)OC)c2c3cc(ccc31)-c1csc(n1)CC(NC(=O)C1CC1C)C(=O)N1CCCC(N1)C(=O)OCC(C)(C)C2: 2.1
5) NC1c2ccccc2OC12CCN(c1cnc3c(N4CCCc5ncccc54)n[nH]c3n1)CC2 (centres undefined) + CCn1c(-c2cc(N3CCN(C)CC3)cnc2C(C)OC)c2c3cc(ccc31)-c1csc(n1)CC(NC(=O)C1CC1C)C(=O)N1CCCC(N1)C(=O)OCC(C)(C)C2: 1.97
6) CC(C)NCC(C(=O)N1CCN(c2ncnc3c2C(C)CC3O)CC1)c1ccc(Cl)cc1 (centres undefined) + CCn1c(-c2cc(N3CCN(C)CC3)cnc2C(C)OC)c2c3cc(ccc31)-c1csc(n1)CC(NC(=O)C1CC1C)C(=O)N1CCCC(N1)C(=O)OCC(C)(C)C2: 12.1
7) CCC(CC)c1cc(NC2CCC(N)C2)n2nccc2n1 (centres undefined) + CCn1c(-c2cccnc2C(C)OC)c2c3cc(ccc31)N1CCOC(CC(NC(=O)C(C(C)C)N(C)C(=O)C3(F)CCN(C(=O)C#CC(C)(C)N(C)C)CC3)C(=O)N3CCCC(N3)C(=O)OCC(C)(C)C2)C1: 4.31
8) CC(=O)OC12COC1CC(O)C1(C)C(=O)C(O)C3=C(C)C(OC(=O)C(O)C(NC(=O)OC(C)(C)C)c4ccccc4)CC(O)(C(OC(=O)c4ccccc4)C21)C3(C)C (centres undefined) + CCn1c(-c2cc(N3CCN(C)CC3)cnc2C(C)OC)c2c3cc(ccc31)-c1csc(n1)CC(NC(=O)C1CC1C)C(=O)N1CCCC(N1)C(=O)OCC(C)(C)C2: 21.7
9) CC(Nc1ccc2c(c1)OCCn1cc(N3C(=O)OCC3C(F)F)nc1-2)C(N)=O (centres undefined) + CCn1c(-c2cccnc2C(C)OC)c2c3cc(ccc31)N1CCOC(CC(NC(=O)C(C(C)C)N(C)C(=O)C3(F)CCN(C(=O)C#CC(C)(C)N(C)C)CC3)C(=O)N3CCCC(N3)C(=O)OCC(C)(C)C2)C1: 5.43
10) NC1c2ccccc2OC12CCN(c1cnc3c(N4CCCc5ncccc54)n[nH]c3n1)CC2 (centres undefined) + CCn1c(-c2cccnc2C(C)OC)c2c3cc(ccc31)N1CCOC(CC(NC(=O)C(C(C)C)N(C)C(=O)C3(F)CCN(C(=O)C#CC(C)(C)N(C)C)CC3)C(=O)N3CCCC(N3)C(=O)OCC(C)(C)C2)C1: 3.24

## Input I would be grateful if you could share the reported viability, T/C for CC1(O)CCCC1n1c(=O)c(C(F)F)cc2cnc(NC3CCN(S(C)(=O)=O)CC3)nc21 (centres undefined) + CCn1c(-c2cccnc2C(C)OC)c2c3cc(ccc31)N1CCOC(CC(NC(=O)C(C(C)C)N(C)C(=O)C3(F)CCN(C(=O)C#CC(C)(C)N(C)C)CC3)C(=O)N3CCCC(N3)C(=O)OCC(C)(C)C2)C1 .
## Output 22.6

## Input Please give the result for CCC(CC)c1cc(NC2CCC(N)C2)n2nccc2n1 (centres undefined) + CCn1c(-c2cc(N3CCN(C)CC3)cnc2C(C)OC)c2c3cc(ccc31)-c1csc(n1)CC(NC(=O)C1CC1C)C(=O)N1CCCC(N1)C(=O)OCC(C)(C)C2 too.
## Output 0.34

## Input Please give the result for CC1(O)CCCC1n1c(=O)c(C(F)F)cc2cnc(NC3CCN(S(C)(=O)=O)CC3)nc21 (centres undefined) + CCn1c(-c2cc(N3CCN(C)CC3)cnc2C(C)OC)c2c3cc(ccc31)-c1csc(n1)CC(NC(=O)C1CC1C)C(=O)N1CCCC(N1)C(=O)OCC(C)(C)C2 too.
## Output 36.3

## Input Please give the result for CC(=O)OC12COC1CC(O)C1(C)C(=O)C(O)C3=C(C)C(OC(=O)C(O)C(NC(=O)OC(C)(C)C)c4ccccc4)CC(O)(C(OC(=O)c4ccccc4)C21)C3(C)C (centres undefined) + CCn1c(-c2cccnc2C(C)OC)c2c3cc(ccc31)N1CCOC(CC(NC(=O)C(C(C)C)N(C)C(=O)C3(F)CCN(C(=O)C#CC(C)(C)N(C)C)CC3)C(=O)N3CCCC(N3)C(=O)OCC(C)(C)C2)C1 too.
## Output 11.6

Where do the numbers come from? From PubChem BioAssay AID2060889.
